B1: library; a variant is named by its letters at N, in order (parent)
chain: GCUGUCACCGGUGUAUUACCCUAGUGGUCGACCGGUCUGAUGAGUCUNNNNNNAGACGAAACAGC

variants of: B1; test: FACS-Seq fitted mean relative fluorescence mCherry/BFP without ligand (log10 relative fluorescence); ligand: hypoxanthine (xanthine aptamer); higher = higher reporter protein expression; settings: HEK293T, ligand present: no
MEASURE NAME: FACS-Seq fitted mean (log10)
Give bare numbers.

Consider the worked cases shown below.
UAACGA 0.432
CAUGCG 0.687
GUAGCU -0.279

# per-item lookup of FACS-Seq fitted mean (log10); items listed below
1. CAGUGG
2. AGCGGA
3. ACUACG
4. UCGUGG
5. GCGAAU
6. ACCAAU

OUTPUT:
0.315
0.427
0.398
0.572
-0.142
0.003

# per-item lookup of FACS-Seq fitted mean (log10); items listed below
1. CCGAGA
2. CCGACC
3. UUAUAC

OUTPUT:
[0.353, 0.287, 0.396]
